// provenance: PubChem BioAssay (EPA / NIEHS)

Read-out: Fatty acid synthase (Homo sapiens) (UniProt P49327)
Sequence (P49327 whole entry, looked up): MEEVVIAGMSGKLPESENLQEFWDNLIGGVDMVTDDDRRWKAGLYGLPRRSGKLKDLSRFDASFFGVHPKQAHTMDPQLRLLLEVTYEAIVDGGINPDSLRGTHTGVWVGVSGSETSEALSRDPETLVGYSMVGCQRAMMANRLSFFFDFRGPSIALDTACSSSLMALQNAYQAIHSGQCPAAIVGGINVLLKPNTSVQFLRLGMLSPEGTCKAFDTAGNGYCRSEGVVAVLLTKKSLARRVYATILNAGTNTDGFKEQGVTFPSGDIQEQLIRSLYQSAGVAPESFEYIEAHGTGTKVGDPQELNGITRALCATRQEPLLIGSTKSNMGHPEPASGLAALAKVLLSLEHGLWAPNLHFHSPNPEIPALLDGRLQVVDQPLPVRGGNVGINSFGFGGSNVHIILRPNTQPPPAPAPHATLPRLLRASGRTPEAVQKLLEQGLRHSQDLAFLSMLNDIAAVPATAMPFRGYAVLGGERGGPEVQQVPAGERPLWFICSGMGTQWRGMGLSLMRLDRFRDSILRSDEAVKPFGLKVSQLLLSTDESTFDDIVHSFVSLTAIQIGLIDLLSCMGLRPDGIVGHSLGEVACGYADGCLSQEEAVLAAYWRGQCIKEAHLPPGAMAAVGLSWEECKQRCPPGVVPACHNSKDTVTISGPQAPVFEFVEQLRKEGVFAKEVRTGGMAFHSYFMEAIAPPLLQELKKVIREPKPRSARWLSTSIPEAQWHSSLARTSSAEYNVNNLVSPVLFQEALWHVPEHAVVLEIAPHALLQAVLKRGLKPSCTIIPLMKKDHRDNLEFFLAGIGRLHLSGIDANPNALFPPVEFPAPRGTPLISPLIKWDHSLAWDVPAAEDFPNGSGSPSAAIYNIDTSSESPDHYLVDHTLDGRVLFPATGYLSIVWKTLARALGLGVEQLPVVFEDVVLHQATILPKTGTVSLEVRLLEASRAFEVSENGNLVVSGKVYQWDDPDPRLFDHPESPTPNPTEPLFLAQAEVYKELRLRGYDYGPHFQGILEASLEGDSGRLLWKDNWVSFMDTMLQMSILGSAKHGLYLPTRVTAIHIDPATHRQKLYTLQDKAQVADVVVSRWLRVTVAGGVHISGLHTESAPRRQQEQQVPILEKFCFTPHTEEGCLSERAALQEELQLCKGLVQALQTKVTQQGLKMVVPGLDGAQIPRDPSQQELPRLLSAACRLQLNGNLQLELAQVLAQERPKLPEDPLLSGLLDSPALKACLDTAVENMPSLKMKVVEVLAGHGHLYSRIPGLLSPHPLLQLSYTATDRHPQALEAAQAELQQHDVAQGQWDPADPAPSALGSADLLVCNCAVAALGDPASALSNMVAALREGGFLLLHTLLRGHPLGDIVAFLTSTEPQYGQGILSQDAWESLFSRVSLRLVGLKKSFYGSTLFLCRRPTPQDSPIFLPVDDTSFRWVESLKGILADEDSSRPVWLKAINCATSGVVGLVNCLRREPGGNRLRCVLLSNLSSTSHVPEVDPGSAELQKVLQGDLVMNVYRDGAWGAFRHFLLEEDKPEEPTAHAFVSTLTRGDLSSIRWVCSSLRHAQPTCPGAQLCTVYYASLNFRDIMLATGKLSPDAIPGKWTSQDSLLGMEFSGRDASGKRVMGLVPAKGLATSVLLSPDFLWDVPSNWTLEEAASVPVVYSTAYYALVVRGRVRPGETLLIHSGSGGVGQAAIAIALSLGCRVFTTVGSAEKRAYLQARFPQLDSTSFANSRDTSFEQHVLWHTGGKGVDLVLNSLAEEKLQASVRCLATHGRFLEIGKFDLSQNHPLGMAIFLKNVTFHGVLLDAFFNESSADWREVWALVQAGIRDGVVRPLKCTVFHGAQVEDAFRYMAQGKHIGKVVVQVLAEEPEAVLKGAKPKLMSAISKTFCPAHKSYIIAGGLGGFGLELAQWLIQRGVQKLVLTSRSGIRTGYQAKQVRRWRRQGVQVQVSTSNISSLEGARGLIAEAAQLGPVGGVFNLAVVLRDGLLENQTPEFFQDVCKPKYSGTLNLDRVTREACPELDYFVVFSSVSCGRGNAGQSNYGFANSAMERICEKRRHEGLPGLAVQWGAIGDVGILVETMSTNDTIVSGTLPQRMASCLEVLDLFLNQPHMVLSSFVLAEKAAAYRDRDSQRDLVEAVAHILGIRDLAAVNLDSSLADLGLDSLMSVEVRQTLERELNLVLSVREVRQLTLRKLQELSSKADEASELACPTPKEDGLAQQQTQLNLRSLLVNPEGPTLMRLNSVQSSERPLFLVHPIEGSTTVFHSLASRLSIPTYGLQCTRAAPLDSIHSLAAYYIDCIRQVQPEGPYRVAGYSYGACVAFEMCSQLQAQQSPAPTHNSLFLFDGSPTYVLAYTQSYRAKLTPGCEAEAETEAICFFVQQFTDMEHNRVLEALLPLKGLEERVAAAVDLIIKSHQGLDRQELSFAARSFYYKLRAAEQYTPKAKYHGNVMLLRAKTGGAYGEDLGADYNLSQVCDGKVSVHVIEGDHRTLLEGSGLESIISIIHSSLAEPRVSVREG
Assay Summary: LTEA_HepaRG_FASN: Life Technologies and Expression Analysis (LTEA) Assay for Fatty Acid Synthase (FASN) using HepaRG (AID 2283448);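 as to AC50: differentiated human HepaRG liver cells in serum-free induction medium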
Stated Conditions: mRNA level, 48 h; actives raise or lower the signal
Activity calls are given as the source filed them. The calls were made as follows: active = hit-call score of the fitted dose curve at least 0.9, where 1 is the maximum; inactive = score below 0.9.
Parameter: AC50

Below: 5 molecules and their reported AC50.
{"Molecule": "C[C@]12C[C@H](O)[C@H]3[C@@H](CCC4=CC(=O)CC[C@@]43C)[C@@H]1CC[C@@H]2C(=O)CO", "Parameter": "AC50", "Result": "inactive"}
{"Molecule": "CN(C)C(=O)Nc1ccc(Cl)c(Cl)c1", "Parameter": "AC50", "Result": "20.3 µM (active)"}
{"Molecule": "c1ccc(Nc2ccccc2)cc1", "Parameter": "AC50", "Result": "inactive"}
{"Molecule": "CCC(C)OC(=O)N1CCCCC1CCO (centres undefined)", "Parameter": "AC50", "Result": "inactive"}
{"Molecule": "CSC(=O)c1cccc2nnsc12", "Parameter": "AC50", "Result": "inactive"}

Task item: State the recorded AC50 for this entry: O=C(O)c1ccccc1
Reply: inactive

Task item: State the recorded AC50 for this entry: COC(=O)c1ccccc1C(=O)O
Reply: inactive

Task item: State the recorded AC50 for this entry: C#CCOC(=O)[C@@H](C)Oc1ccc(Oc2ncc(Cl)cc2F)cc1
Reply: 13.3 µM (active)

Task item: State the recorded AC50 for this entry: O=C(O)C1(C(=O)Nc2ccc(Cl)cc2Cl)CC1
Reply: 69.8 µM (active)

---

Read-out: Monokine induced gamma interferon (MIG), CXCL9 (gene 4283)
Assay Summary: BSK_SAg_MIG: BioMAP Diversity Plus: SAg Assay for Monokine induced gamma interferon (MIG) Biomarker Activity (AID 2283092)
Stated Conditions: primary human HUVEC with PBMC; actives raise or lower the signal
Activity calls are given as the source filed them. The calls were made as follows: active = hit-call score of the fitted dose curve at least 0.9, where 1 is the maximum; inactive = score below 0.9.
Parameter: AC50

{"Compound": "COc1c(Cl)ccc(Cl)c1C(=O)O", "AC50": "inactive"}
{"Compound": "CCCCCCC(C)OC(=O)COc1nc(F)c(Cl)c(N)c1Cl (stereo not given)", "AC50": "38.5 µM (active)"}
{"Compound": "O=C(O)C1(C(=O)Nc2ccc(Cl)cc2Cl)CC1", "AC50": "inactive"}
{"Compound": "CC(C)CCCCCCc1ccc(O)cc1", "AC50": "9.25 µM (active)"}

Read the next record carefully.
Task item: State the recorded AC50 for this entry: COC(=O)c1ccccc1S(=O)(=O)NC(=O)Nc1nc(OC(F)F)cc(OC(F)F)n1
Reply: inactive

---

Read-out: Human Leukocyte Antigen - DR isotype (HLADR), HLA-DRA (gene 3122)
Assay Summary: BSK_3C_HLADR: BioMAP Diversity Plus: 3C Assay for Human Leukocyte Antigen - DR isotype (HLADR) Biomarker Activity (AID 2283019)
Stated Conditions: primary human endothelial cells (HUVEC); actives raise or lower the signal
Active and inactive are the calls of the source. How the source made its calls: active means hit-call score of the fitted dose curve at least 0.9, where 1 is the maximum; inactive means score below 0.9.
Parameter: AC50

Below: 10 compounds and their reported AC50.
{"Compound": "OB(O)O", "Result": "inactive"}
{"Compound": "CCC(O)=C1C(=O)CC(C(=O)O)CC1=O (centres undefined)", "Result": "inactive"}
{"Compound": "C[C@]12CC[C@@H]3c4ccc(O)cc4C[C@@H](CCCCCCCCCS(=O)CCCC(F)(F)C(F)(F)F)[C@H]3[C@@H]1CC[C@@H]2O (some centres undefined)", "Result": "inactive"}
{"Compound": "O=C(c1ccccc1)C1CCCCC1", "Result": "inactive"}
{"Compound": "COC(=O)c1ccccc1C(=O)O", "Result": "9.98 µM (active)"}
{"Compound": "CCOC(=O)[C@H](C)Oc1ccc(Oc2nc3ccc(Cl)cc3o2)cc1", "Result": "7.25 µM (active)"}
{"Compound": "CCCCC(CC)CN1C(=O)C2C3C=CC(C3)C2C1=O (centres undefined)", "Result": "30.6 µM (active)"}
{"Compound": "CCC(C)OC(=O)N1CCCCC1CCO (centres undefined)", "Result": "inactive"}
{"Compound": "C#C[C@]1(O)CC[C@H]2[C@@H]3CCC4=CC(=O)CC[C@@H]4[C@H]3CC[C@@]21CC", "Result": "20 µM (active)"}
{"Compound": "CCOC(=O)NCCOc1ccc(Oc2ccccc2)cc1", "Result": "25.5 µM (active)"}

Read the next record carefully.
Task item: State the recorded AC50 for this entry: CCCCCCC(C)OC(=O)COc1nc(F)c(Cl)c(N)c1Cl (centres undefined)
Reply: 31.6 µM (active)

---

Read-out: Monokine induced gamma interferon (MIG), CXCL9 (gene 4283)
Assay Summary: BSK_hDFCGF_MIG: BioMAP Diversity Plus: hDFCGF Assay for Monokine induced gamma interferon (MIG) Biomarker Activity (AID 2283063)
Stated Conditions: primary human foreskin fibroblasts; actives raise or lower the signal
Active and inactive are the calls of the source. Rule for the calls: active = hit-call score of the fitted dose curve at least 0.9, where 1 is the maximum; inactive = score below 0.9.
API: response.call in active, inactive

Task item: Could you kindly confirm the outcome this assay logged for CCOC(=O)c1ccc(O)cc1 ?
Reply: inactive

Task item: Could you kindly confirm the outcome this assay logged for CCCOC(=O)NCCCN(C)C ?
Reply: inactive

Task item: Could you kindly confirm the outcome this assay logged for COCCO ?
Reply: inactive

Task item: Could you kindly confirm the outcome this assay logged for Oc1ccc(C(c2ccc(O)cc2)C(Cl)(Cl)Cl)cc1 ?
Reply: active

---

Read-out: Human Leukocyte Antigen - DR isotype (HLADR), HLA-DRA (gene 3122)
Assay Summary: BSK_BE3C_HLADR: BioMAP Diversity Plus: BE3C Assay for Human Leukocyte Antigen - DR isotype (HLADR) Biomarker Activity (AID 2283032)
Stated Conditions: primary human bronchial epithelial cells; actives raise or lower the signal
Activity calls are given as the source filed them. How the source made its calls: active means hit-call score of the fitted dose curve at least 0.9, where 1 is the maximum; inactive means score below 0.9.
API: response.call in active, inactive

Task item: Could you kindly confirm the outcome this assay logged for C#C[C@]1(O)CC[C@H]2[C@@H]3CCC4=CC(=O)CC[C@@H]4[C@H]3CC[C@@]21CC ?
Reply: inactive

Task item: Could you kindly confirm the outcome this assay logged for CSC(=O)c1cccc2nnsc12 ?
Reply: inactive

Task item: Could you kindly confirm the outcome this assay logged for O=C(c1ccccc1)C1CCCCC1 ?
Reply: inactive

Task item: Could you kindly confirm the outcome this assay logged for CC(=O)[C@H]1CC[C@H]2[C@@H]3CCC4=CC(=O)CC[C@]4(C)[C@H]3CC[C@]12C ?
Reply: inactive

Task item: Could you kindly confirm the outcome this assay logged for CC(C)CCCCCCc1ccc(O)cc1 ?
Reply: active

Task item: Could you kindly confirm the outcome this assay logged for c1ccc2[nH]c(-c3cscn3)nc2c1 ?
Reply: inactive

Task item: Could you kindly confirm the outcome this assay logged for COCCO ?
Reply: inactive

Task item: Could you kindly confirm the outcome this assay logged for CC(C)(C)[C@@H](O)[C@@H](Cc1ccc(Cl)cc1)n1cncn1 ?
Reply: inactive

Task item: Could you kindly confirm the outcome this assay logged for COC(=O)c1ccccc1S(=O)(=O)NC(=O)Nc1nc(OC(F)F)cc(OC(F)F)n1 ?
Reply: inactive

Task item: Could you kindly confirm the outcome this assay logged for COC(=O)c1cccc(C)c1S(=O)(=O)NC(=O)Nc1nc(OCC(F)(F)F)nc(N(C)C)n1 ?
Reply: inactive

---

Assay Summary: ATG_MRE_CIS: Attagene CIS-FACTORIAL HepG2 Assay for human Metal Responsive Element (MRE) (AID 2282954)
Stated Conditions: HepG2 MRE cis-reporter transcription, Attagene multiplex; actives raise or lower the signal
Activity calls are given as the source filed them. The calls were made as follows: active = hit-call score of the fitted dose curve at least 0.9, where 1 is the maximum; inactive = score below 0.9.
API: response.call in active, inactive

Task item: Could you kindly confirm the outcome this assay logged for Cc1nn(C)c(Oc2ccccc2)c1C=NOCc1ccc(C(=O)OC(C)(C)C)cc1 ?
Reply: active

Task item: Could you kindly confirm the outcome this assay logged for CCCCC(CC)CN1C(=O)C2C3C=CC(C3)C2C1=O (stereo not drawn) ?
Reply: active

Task item: Could you kindly confirm the outcome this assay logged for COc1nc(C)nc(NC(=O)NS(=O)(=O)c2ccccc2OCCCl)n1 ?
Reply: inactive

Task item: Could you kindly confirm the outcome this assay logged for OB(O)O ?
Reply: inactive

Task item: Could you kindly confirm the outcome this assay logged for COC(=O)c1cccc(C)c1S(=O)(=O)NC(=O)Nc1nc(OCC(F)(F)F)nc(N(C)C)n1 ?
Reply: inactive

Task item: Could you kindly confirm the outcome this assay logged for CCCCOC(=O)[C@@H](C)Oc1ccc(Oc2ccc(C(F)(F)F)cn2)cc1 ?
Reply: inactive

Task item: Could you kindly confirm the outcome this assay logged for CC(C)(C)[C@@H](O)[C@@H](Cc1ccc(Cl)cc1)n1cncn1 ?
Reply: inactive

Task item: Could you kindly confirm the outcome this assay logged for O=C(c1ccccc1)C1CCCCC1 ?
Reply: inactive

Task item: Could you kindly confirm the outcome this assay logged for O=C(O)c1ccccc1 ?
Reply: inactive

Task item: Could you kindly confirm the outcome this assay logged for CCC(C)OC(=O)N1CCCCC1CCO (stereo not drawn) ?
Reply: inactive

Task item: Could you kindly confirm the outcome this assay logged for CCC(O)=C1C(=O)CC(C(=O)O)CC1=O (stereo not drawn) ?
Reply: inactive

Task item: Could you kindly confirm the outcome this assay logged for C#C[C@]1(O)CC[C@H]2[C@@H]3CCC4=CC(=O)CC[C@@H]4[C@H]3CC[C@@]21CC ?
Reply: inactive

Task item: Could you kindly confirm the outcome this assay logged for C#CCOC(=O)[C@@H](C)Oc1ccc(Oc2ncc(Cl)cc2F)cc1 ?
Reply: inactive
